compounds and their reported growth at 100 µM
Tested on: HCT-116
protocol.notes: Growth inhibition of human HCT116 cells assessed as cell growth at 100 uM incubated for 48 hrs by sulforhodamine B assay relative to control
Format: functional
measurement.setup: HCT-116, 48 h, read-out: Activity
Reply numerically in %, unit not repeated.

Observe how each entry below is paired with its result.
O=C(Nc1cccc(-n2cc(-c3ccncc3)c(-c3cc(O)cc(Cl)c3)n2)c1)Nc1ccc(Cl)c(Cl)c1: -61
COc1cc(Cl)cc(-c2nn(-c3cccc(NC(=O)Nc4cc(C(F)(F)F)cc(C(F)(F)F)c4)c3)cc2-c2ccncc2)c1: -88
COc1cc(Cl)cc(-c2nn(-c3cccc(NC(=O)Nc4ccc(Cl)c(C(F)(F)F)c4)c3)cc2-c2ccncc2)c1: -94

# ---- query compound ----
Report growth at 100 µM for `O=C(Nc1cccc(-n2cc(-c3ccncc3)c(-c3cc(O)cc(Cl)c3)n2)c1)c1cc(C(F)(F)F)cc(C(F)(F)F)c1` please.
5
